Just for reference, patent US20070077617 is where these values come from.

Target: fusion protein PRK
Sequence (chain, as listed by the source): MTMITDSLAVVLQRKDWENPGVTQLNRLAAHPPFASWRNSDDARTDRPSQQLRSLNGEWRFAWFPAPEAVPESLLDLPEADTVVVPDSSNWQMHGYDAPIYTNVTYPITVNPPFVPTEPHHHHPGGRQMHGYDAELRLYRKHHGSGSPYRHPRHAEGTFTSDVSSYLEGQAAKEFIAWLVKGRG
recorded.endpoint: relative cleavage efficiency (%)
Give the number; % is assumed, so skip it.

Prompt line: Consider the protein shown here: OmpT protease variant OmpT D97E (protein) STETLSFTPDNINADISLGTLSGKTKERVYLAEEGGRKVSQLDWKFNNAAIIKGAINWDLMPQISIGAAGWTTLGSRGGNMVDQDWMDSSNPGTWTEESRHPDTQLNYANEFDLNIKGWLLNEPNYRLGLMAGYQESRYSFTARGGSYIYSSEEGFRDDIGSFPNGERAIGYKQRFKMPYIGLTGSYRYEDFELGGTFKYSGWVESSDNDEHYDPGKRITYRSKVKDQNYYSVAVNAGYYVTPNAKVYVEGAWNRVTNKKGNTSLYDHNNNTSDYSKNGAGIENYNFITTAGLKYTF What is its recorded relative cleavage efficiency?
Response line: 39
